Readings of peptide exchange yield for the listed binders
biological target: T1, HLA-B*08:01 (human); assay: UV peptide exchange ELISA
T1 construct: MHC monomer first loaded with a UV-sensitive peptide that is cleaved by UV light and exchanged for the test peptide
PROPERTY_NAME: peptide exchange yield

- PVKPKFYL [PVKPKFYL (SEQ ID NO: 114)]: 20 to 50%
- EEKHFTTL [EEKHFTTL (SEQ ID NO: 192)]: 20 to 50%
- LDLRQKVL [LDLRQKVL (SEQ ID NO: 196)]: 20 to 50%
- FLRVFTDSL [FLRVFTDSL (SEQ ID NO: 49)]: 50 to 75%
- EGNQKSVI [EGNQKSVI (SEQ ID NO: 195)]: 20 to 50%
- NPLIEIISI [NPLIEIISI (SEQ ID NO: 215)]: 20 to 50%
